Measured values drawn from paper PMC9504748 for this set.

What IC50 was measured for each of the following?
biological target: ACLY (Homo sapiens, UniProt P53396); construct: His; made in house; host or cells: Escherichia coli BL21(DE3); assay: ACLY enzymatic inhibition assay (ADP-Glo Kinase Assay); assay type: biochemical; details: concentration-response curves;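 note: purified recombinant His-tagged human ACLY, compounds preincubated with enzyme 15 min, then ADP formed measured as luciferase luminescence after ADP-Glo reagent depletes leftover ATP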
One number for each entry, in µM.

Known IC50 results, listed for orientation:
compound	observationType	numericValue
Oc1cc(O)c2c(c1)OC(c1ccc(O)c(O)c1)C(O)C2 (stereo not shown)	IC50	23.6
COc1cc(-c2oc3cc(O)cc(O)c3c(=O)c2O)ccc1O	IC50	49.7

Record IC50 per entry; entries follow.
1. O=c1c(O)c(-c2cc(O)c(O)c(O)c2)oc2cc(O)cc(O)c12
2. O=c1c(O)c(-c2ccc(O)cc2)oc2c(O)c(O)cc(O)c12

# output
1. 0.57
2. 0.5

----------
Biological target: ACLY (Homo sapiens, UniProt P53396)
Construct: His; made in house; host or cells: Escherichia coli BL21(DE3)
Sequence (P53396 1-1101): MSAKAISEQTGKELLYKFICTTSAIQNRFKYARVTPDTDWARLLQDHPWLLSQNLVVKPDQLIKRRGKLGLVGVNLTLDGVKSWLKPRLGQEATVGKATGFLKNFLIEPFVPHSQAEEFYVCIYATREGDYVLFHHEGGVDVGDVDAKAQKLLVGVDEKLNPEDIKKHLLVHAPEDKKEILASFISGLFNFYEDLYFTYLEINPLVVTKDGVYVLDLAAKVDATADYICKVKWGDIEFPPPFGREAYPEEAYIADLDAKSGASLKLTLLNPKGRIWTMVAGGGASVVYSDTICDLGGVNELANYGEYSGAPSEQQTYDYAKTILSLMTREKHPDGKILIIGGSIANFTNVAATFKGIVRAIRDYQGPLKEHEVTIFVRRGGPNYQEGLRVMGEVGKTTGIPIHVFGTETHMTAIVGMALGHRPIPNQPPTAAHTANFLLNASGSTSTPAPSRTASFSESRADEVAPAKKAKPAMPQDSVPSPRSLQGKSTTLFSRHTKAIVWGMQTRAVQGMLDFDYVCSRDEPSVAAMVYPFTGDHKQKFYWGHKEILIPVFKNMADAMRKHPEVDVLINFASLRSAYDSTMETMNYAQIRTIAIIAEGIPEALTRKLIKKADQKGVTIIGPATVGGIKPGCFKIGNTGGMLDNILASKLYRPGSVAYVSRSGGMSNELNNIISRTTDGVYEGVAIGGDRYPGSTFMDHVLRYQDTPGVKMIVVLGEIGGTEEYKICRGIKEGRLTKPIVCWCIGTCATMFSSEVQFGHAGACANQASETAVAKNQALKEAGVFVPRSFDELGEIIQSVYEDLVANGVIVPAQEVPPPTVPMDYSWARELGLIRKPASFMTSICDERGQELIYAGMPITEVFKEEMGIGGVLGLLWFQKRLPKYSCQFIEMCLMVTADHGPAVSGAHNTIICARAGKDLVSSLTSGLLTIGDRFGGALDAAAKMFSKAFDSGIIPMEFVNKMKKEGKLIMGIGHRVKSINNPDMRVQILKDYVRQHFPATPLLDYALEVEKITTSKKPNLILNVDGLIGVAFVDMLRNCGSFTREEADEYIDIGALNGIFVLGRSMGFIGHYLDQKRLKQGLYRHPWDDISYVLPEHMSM
Assay: Enzymatic kinetic studies (Michaelis-Menten, Lineweaver-Burk)
Assay type: biochemical
Settings: citric acid (CA) as substrate
observationType: Ki (µM)
Answers are plain numbers, in µM.

# input What measured Ki goes with O=c1c(O)c(-c2ccc(O)cc2)oc2c(O)c(O)cc(O)c12 ?
# output 0.11
